- Organism: Rattus norvegicus
- Protocol: Open TG-GATES - Regimen: Single
- Type: toxicity, organism-based, Sprague-Dawley
- Set-up: regimen Single, gender Male, age 6 weeks
- Condition Summary: in vivo, po, 0 mg/kg, 9 h, tissue Blood, route gavage, dose level Control
Metric: Lym (%)

Oc1ncnc2[nH]ncc12 [ALLOPURINOL]; 71.4
CCSCC[C@H](N)C(=O)O [ETHIONINE]; 76.8
O=C(O)c1cccnc1 [NIACIN]; 81.4
CC(=O)Oc1cc(C(C)C)c(OCCN(C)C)cc1C [MOXISYLYTE]; 82.2
C[C@](N)(Cc1ccc(O)c(O)c1)C(=O)O [METHYLDOPA]; 75.4
CCc1oc2ccccc2c1C(=O)c1cc(I)c(O)c(I)c1 [BENZIODARONE]; 77.6
